Cited source: patent US20120065231A1

target: androgen receptor (Homo sapiens, UniProt P10275, DEL75-80/DUP470-473); construct: expressed in transfected cells; host or cells: human-derived CHP212 cells, stably transformed with pGL3-TATA-3xARE and pRC/RSV-hAR Kozak; experiment: Androgen receptor agonist activity by reporter gene assay method; type: cell-based; conditions: agonist activity; transformed human-derived CHP212 cells with pGL3-TATA-3×ARE luciferase reporter and pRC/RSV-hAR Kozak; 24 hours; read-out: EC50
Sequence (P10275 with tags, fused parts or gaps DEL75-80/DUP470-473): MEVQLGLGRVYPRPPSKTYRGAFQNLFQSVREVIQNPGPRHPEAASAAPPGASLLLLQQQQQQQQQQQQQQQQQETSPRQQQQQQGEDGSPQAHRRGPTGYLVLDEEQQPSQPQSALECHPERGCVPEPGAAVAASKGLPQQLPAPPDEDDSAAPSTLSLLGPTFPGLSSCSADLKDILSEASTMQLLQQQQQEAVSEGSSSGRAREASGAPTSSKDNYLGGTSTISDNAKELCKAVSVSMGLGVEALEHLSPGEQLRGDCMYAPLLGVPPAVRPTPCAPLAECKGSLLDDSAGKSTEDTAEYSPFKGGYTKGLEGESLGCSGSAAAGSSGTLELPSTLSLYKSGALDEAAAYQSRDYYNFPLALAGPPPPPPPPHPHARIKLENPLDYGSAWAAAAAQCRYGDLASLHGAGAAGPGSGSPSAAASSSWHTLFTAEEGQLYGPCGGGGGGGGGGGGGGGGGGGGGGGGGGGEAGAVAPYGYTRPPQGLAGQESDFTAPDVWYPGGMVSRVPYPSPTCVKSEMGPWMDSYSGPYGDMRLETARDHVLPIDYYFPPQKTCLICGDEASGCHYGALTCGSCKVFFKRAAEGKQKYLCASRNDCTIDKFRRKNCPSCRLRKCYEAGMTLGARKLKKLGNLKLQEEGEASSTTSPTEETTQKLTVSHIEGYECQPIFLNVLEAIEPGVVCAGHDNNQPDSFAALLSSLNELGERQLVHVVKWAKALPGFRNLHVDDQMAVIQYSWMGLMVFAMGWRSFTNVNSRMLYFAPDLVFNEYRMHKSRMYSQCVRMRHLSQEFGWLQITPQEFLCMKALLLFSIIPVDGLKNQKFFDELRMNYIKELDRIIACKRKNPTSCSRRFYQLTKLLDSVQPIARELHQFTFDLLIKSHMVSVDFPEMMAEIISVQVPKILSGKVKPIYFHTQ
PROPERTY NAME: EC50 (nM)
Provide the reading as a plain figure in nM.

Some entries whose results are on file:
# COMPOUND, UNITS TEXT, EC50
rows = [
    ("CCCN(CCC)c1cc(Br)c(C#N)s1", "nM", 43.3),
    ("CCC1CCCCN1c1cc(Br)c(C#N)s1 (stereo not drawn)", "nM", 4.9),
    ("N#Cc1sc(N2CCCCC2C#N)cc1Br (stereo not drawn)", "nM", 1500),
]

Please turn your attention to the following entry.
### Prompt What value of EC50 has been reported for the following compound? N#Cc1sc(N2CCCCC2C(O)C(F)(F)F)cc1Br (racemic)
### Response 14
